Catalogue of molecules with associated Cell viability
Tested on: Vero
Experiment: Cytotoxicity against African green monkey Vero cells at 25 ug/mL by neutral red dye uptake assay relative to control
Type: cell-based
Details: chlorocebus sabaeus
Please state the figure in %; there is no need to write the unit.

Input O=C1CSC(c2cccc(Cl)c2)N1CCN1CCCCC1 (stereo unspecified) . Output Cell viability: 100

Input O=C1CSC(c2ccc(Cl)cc2)N1CCN1CCCCC1 (stereo unspecified) . Output Cell viability: 84

Input O=C1CSC(c2cccc([N+](=O)[O-])c2)N1CCN1CCCCC1 (stereo unspecified) . Output Cell viability: 100

Input O=C1CSC(c2ccc([N+](=O)[O-])cc2)N1CCN1CCCCC1 (stereo unspecified) . Output Cell viability: 100

###

Tested on: Geotrichum
Experiment: Antifungal activity against Geotrichum species after 48 hrs by CLSI M27A3 broth microdilution method
Type: functional
quantity: MFC (µg/mL)
Please state the figure in µg/mL; there is no need to write the unit.

Look over these answered cases.
* O=C1CSC(c2ccc(F)cc2)N1CCN1CCCCC1 (stereo not given) | 50
* O=C1CSC(c2ccccc2[N+](=O)[O-])N1CCN1CCCCC1 (stereo not given) | 25
* O=C1CSC(c2ccc([N+](=O)[O-])cc2)N1CCN1CCCCC1 (stereo not given) | 50

Input "OC(Cn1cncn1)(Cn1cncn1)c1ccc(F)cc1F" . Output MFC: 8

###

Test system: Rhodotorula
Experiment: Antifungal activity against Rhodotorula species after 48 hrs by CLSI M27A3 broth microdilution method
Assay type: functional
quantity: MIC (µg/mL)
Please state the figure in µg/mL; there is no need to write the unit.

* COc1ccc(C2SCC(=O)N2CCN2CCCCC2)cc1 (configuration not stated) | 33.5
* O=C1CSC(c2ccc(F)cc2)N1CCN1CCCCC1 (configuration not stated) | 25
* Cc1ccc(C2SCC(=O)N2CCN2CCCCC2)cc1 (configuration not stated) | 37.5
* O=C1CSC(c2cccc(O)c2)N1CCN1CCCCC1 (configuration not stated) | 33.5
* O=C1CSC(c2ccccc2F)N1CCN1CCCCC1 (configuration not stated) | 36

Input COc1cccc(C2SCC(=O)N2CCN2CCCCC2)c1 (configuration not stated) . Output MIC: 33.5

###

Tested on: Vero
Assay: Cytotoxicity against African green monkey Vero cells at 394 ug/mL by neutral red dye uptake assay relative to control
Format: cell-based
Conditions: chlorocebus sabaeus
Catalogue of molecules with associated Cell viability
Please state the figure in %; there is no need to write the unit.

- COc1ccc(C2SCC(=O)N2CCN2CCCCC2)cc1 (centres undefined): 73
- O=C1CSC(c2ccc(Cl)cc2)N1CCN1CCCCC1 (centres undefined): 28
- O=C1CSC(c2ccc(O)cc2)N1CCN1CCCCC1 (centres undefined): 76

Pending molecule:
Input O=C1CSC(c2ccc(F)cc2)N1CCN1CCCCC1 (centres undefined) . Output Cell viability: 52

###

System: Candida albicans
Assay: Antifungal activity against Candida albicans after 48 hrs by CLSI M27A3 broth microdilution method
Type: functional
quantity: MFC (µg/mL)
Please state the figure in µg/mL; there is no need to write the unit.

- O=C1CSC(c2ccccc2[N+](=O)[O-])N1CCN1CCCCC1 (centres undefined): 55

Input O=C1CSC(c2cccc(O)c2)N1CCN1CCCCC1 (centres undefined) . Output MFC: 81

Input O=C1CSC(c2ccc(F)cc2)N1CCN1CCCCC1 (centres undefined) . Output MFC: 45

Input O=C1CSC(c2ccc(O)cc2)N1CCN1CCCCC1 (centres undefined) . Output MFC: 100

Input Cc1ccc(C2SCC(=O)N2CCN2CCCCC2)cc1 (centres undefined) . Output MFC: 62

###

System: Rhodotorula
Assay: Antifungal activity against Rhodotorula species after 48 hrs by CLSI M27A3 broth microdilution method
Format: functional
hey, just use Yes if measured MIC is less than 30 µg/mL, otherwise No

Worked cases, answers included:
- OC(Cn1cncn1)(Cn1cncn1)c1ccc(F)cc1F: Yes
- O=C1CSC(c2cccc([N+](=O)[O-])c2)N1CCN1CCCCC1 (stereo unspecified): Yes
- O=C1CSC(c2ccc(O)cc2)N1CCN1CCCCC1 (stereo unspecified): Yes
- O=C1CSC(c2ccccc2[N+](=O)[O-])N1CCN1CCCCC1 (stereo unspecified): Yes
- O=C1CSC(c2ccccc2Cl)N1CCN1CCCCC1 (stereo unspecified): No
- O=C1CSC(c2cccc(Cl)c2)N1CCN1CCCCC1 (stereo unspecified): Yes

-- ask Is MIC strictly under 30 µg/mL for the entry COc1ccccc1C1SCC(=O)N1CCN1CCCCC1 (stereo unspecified) ?
-- reply Yes

-- ask Is MIC strictly under 30 µg/mL for the entry O=C1CSC(c2ccc(Cl)cc2)N1CCN1CCCCC1 (stereo unspecified) ?
-- reply No

-- ask Is MIC strictly under 30 µg/mL for the entry O=C1CSC(c2cccc(F)c2)N1CCN1CCCCC1 (stereo unspecified) ?
-- reply No

###

Catalogue of compounds with associated MFC
System: Candida albicans
Assay: Antifungal activity against Candida albicans after 48 hrs by CLSI M27A3 broth microdilution method
Format: functional
Please state the figure in µg/mL; there is no need to write the unit.

Look over these answered cases.
• O=C1CSC(c2cccc([N+](=O)[O-])c2)N1CCN1CCCCC1 (centres undefined) = 50
• OC(Cn1cncn1)(Cn1cncn1)c1ccc(F)cc1F = 1
• O=C1CSC(c2cccc(F)c2)N1CCN1CCCCC1 (centres undefined) = 150

Pending compound:
Input O=C1CSC(c2ccccc2Cl)N1CCN1CCCCC1 (centres undefined) . Output MFC: 75
